Target: T1, O6
T1 chain: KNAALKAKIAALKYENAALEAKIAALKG
Test: two-hybrid library CC0;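 also: natural log of median RNA to DNA barcode read ratio; higher means stronger binding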
Settings: mean of both orientations
Overview of recorded interaction score for various binders
// print number alone

Here are 5 binders together with their reported answers.
{"columns": ["binder", "observed result"],
 "data": [
  ["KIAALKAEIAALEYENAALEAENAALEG [O11]", -2.64],
  ["EIAALEAKIAALKYENAALEAENAALEG [O3]", -2.66],
  ["ENAALEAKNAALKYKIAALKAKIAALKG [O2]", -2.73],
  ["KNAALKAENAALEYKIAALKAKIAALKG [O10]", -2.76],
  ["EIAALEAENAALEYKIAALKAENAALEG [O15]", -2.79]
]}

Please turn your attention to the following entry.
The binder listed as ENAALEAEIAALEYENAALEAKIAALKG [O14] shows interaction score equal to 0.177

Every entry's value here was drawn from paper PMC10397247.
